Test system: NCI/ADR-RES ovarian
Experiment: NCI-60 one-dose screen, 48 h
Conditions: 10 µM unless noted
Compounds without any hit were thinned out: in the full panel of roughly 83,000, 20% have a hit. Active and inactive are the calls of the source. Rule for the calls: active = growth percent below 10; inactive = the rest.
Would you mind answering with one of these outcomes? active, inactive

Known results for compounds:
CCc1ccc(Nc2ncnc3c2cnn3-c2cccc(Br)c2)cc1	inactive
Cn1c(=O)c2c3c(oc2c2ccccc21)C(=O)c1ccccc1C3=O	inactive
COc1cc(/C=C/C(=O)c2ccc(NC(=O)CSc3nnc(-c4ccc(Cl)cc4)n3-c3ccccc3)cc2)cc(OC)c1OC	inactive
CC(C)(C)NC(=O)C(OC(=O)C1CCc2cc(F)ccc2O1)c1ccccc1Cl (stereo not given)	inactive
CCCCCCCCNC(C)C(O)c1ccc(SC(C)C)cc1 (stereo not given)	inactive
COc1cc(C)cc2oc3oc(=O)c(-c4csc(-c5cc6ccccc6oc5=O)n4)cc3c(=O)c12	inactive
NC(=Nc1ccccc1)SCCCSC(N)=Nc1ccccc1	inactive
CCOc1ccc([C@@H]2[C@@H](Oc3ccccc3)C(=O)N2c2cc(OC)c(OC)c(OC)c2)cc1	inactive
Cc1ccc(NC(=O)c2nc(S(C)(=O)=O)oc2-c2ccc(F)cc2)cc1Nc1ccc2ncn(C)c(=O)c2c1	inactive
COc1ccc(/C(=C\c2ccc3c(c2)OCO3)C(=O)Nc2nc3ccc(F)cc3s2)cc1OC	inactive

Query block: Tell me the recorded outcome of this test for `c1ccc(-c2[nH]c3ccccc3c2-c2ccccc2)cc1` .
Result block: inactive

Query block: Then this compound: `CN1CCN(Cc2ccc(NC(=O)c3ccc(C#N)c(C#Cc4cnc(N)c5ncccc45)c3)cc2C(F)(F)F)CC1`
Result block: inactive

Query block: Would you mind doing `COc1ccc(/C=c2\c(=O)n(-c3ccccc3)c3nn4c(=O)c(=O)[nH]nc4n23)cc1` as well?
Result block: inactive

Query block: Same lookup for O=C1OCC2=C1C(c1cccc(Br)c1)c1cc3c(cc1N2CCO)OCCO3 (stereo not given) , please.
Result block: active

Query block: Here is the next compound: CC(=O)OC1Oc2cc(C)c(C)cc2-c2oc(=O)c(-c3cc4ccccc4oc3=O)cc21 (stereo not given)
Result block: inactive

Value source: PubChem BioAssay (NCI)
